Cited source: patent US11684616B2

Could you please report measured Ki for the items listed next?
TARGET ENTITY: human full-length autophosphorylated recombinant HPK1 (Homo sapiens (Human), UniProt Q92918)
Sequence (Q92918 other isoform, or with tags, fused parts or gaps): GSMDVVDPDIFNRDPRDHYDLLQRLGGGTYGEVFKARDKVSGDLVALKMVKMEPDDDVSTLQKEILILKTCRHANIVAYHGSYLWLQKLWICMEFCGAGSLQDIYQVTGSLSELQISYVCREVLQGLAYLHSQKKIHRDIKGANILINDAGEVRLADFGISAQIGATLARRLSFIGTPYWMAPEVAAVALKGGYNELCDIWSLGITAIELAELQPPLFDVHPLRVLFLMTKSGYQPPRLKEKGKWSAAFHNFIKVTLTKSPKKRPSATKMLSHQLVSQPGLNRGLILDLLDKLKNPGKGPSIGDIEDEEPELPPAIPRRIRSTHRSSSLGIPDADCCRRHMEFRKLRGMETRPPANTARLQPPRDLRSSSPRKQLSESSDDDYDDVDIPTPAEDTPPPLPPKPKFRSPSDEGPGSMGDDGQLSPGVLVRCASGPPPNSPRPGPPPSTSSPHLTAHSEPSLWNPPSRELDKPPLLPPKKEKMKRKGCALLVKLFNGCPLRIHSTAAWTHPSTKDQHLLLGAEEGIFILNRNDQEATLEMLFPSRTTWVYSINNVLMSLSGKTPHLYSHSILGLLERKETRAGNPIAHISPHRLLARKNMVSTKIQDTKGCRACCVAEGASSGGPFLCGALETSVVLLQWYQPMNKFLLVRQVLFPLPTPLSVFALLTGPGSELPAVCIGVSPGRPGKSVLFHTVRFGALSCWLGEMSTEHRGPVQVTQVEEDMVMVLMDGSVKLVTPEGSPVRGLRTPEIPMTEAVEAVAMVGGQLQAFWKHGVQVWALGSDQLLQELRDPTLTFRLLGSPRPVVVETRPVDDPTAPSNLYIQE
EXPERIMENT SUMMARY: HPK1 biochemical enzyme assay (chelation-enhanced fluorescence, CHEF)
CONDITION INFO: 0.5 nM HPK1, 45 μM ATP, Morrison fit
Unit nM implied. Number only.

Ask | Could you tell me which Ki is on file for CCCn1c(C)nnc1-c1cccc(N2Cc3c(cc(N(C)C(C)C)nc3[C@H](C)N)C2=O)n1 (single isomer, unassigned) [Example 149] ?
Reply | 0.6

Ask | Input CC[C@@H]1CCc2nnc(-c3cccc(N4Cc5c(cc(N6CCC[C@H]6C)nc5CNC)C4=O)n3)n21 [Example 203]
Reply | 1.04

Ask | Field entry: CNCc1nc(N2CCC[C@H]2C)cc2c1CN(c1cccc(-c3nnc4n3[C@@H](CF)CC4)n1)C2=O [Example 202]
Reply | 0.06

###

TARGET ENTITY: Human recombinant full-length GST-tagged PRKD2 (PKD2) (Homo sapiens (Human))
Sequence (Q9BZL6 whole entry): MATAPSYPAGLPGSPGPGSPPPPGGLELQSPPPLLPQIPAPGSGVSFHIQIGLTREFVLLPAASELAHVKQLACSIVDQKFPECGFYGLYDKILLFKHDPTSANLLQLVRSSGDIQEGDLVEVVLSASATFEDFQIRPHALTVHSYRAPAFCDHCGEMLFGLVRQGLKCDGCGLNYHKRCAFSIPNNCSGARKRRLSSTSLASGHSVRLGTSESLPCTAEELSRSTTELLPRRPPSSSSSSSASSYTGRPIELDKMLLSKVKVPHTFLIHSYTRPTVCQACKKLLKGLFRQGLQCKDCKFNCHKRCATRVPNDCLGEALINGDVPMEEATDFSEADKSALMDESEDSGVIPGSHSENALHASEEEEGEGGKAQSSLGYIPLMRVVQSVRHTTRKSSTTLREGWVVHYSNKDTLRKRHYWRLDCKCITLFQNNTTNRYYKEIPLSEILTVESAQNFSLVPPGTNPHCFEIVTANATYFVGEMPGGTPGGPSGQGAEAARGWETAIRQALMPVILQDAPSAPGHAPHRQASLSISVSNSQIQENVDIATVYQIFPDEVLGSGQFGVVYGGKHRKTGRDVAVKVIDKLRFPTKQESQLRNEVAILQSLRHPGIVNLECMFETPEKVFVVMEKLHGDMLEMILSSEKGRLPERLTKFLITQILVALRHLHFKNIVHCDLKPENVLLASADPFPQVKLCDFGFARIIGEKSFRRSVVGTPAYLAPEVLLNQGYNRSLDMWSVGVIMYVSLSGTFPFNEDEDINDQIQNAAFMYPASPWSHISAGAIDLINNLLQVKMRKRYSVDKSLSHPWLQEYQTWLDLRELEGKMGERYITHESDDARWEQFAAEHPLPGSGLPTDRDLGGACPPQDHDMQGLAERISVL
EXPERIMENT SUMMARY: Biochemical selectivity kinase assay (Z'-LYTE FRET), PRKD2
CONDITION INFO: 25 μM ATP (~Km)
RECORDED ENDPOINT: pIC50
Answer as the number alone; pIC50 is minus log10 of concentration in mol/L.

Ask | So what does the record say about pIC50 for CCCn1cnnc1-c1cccc(N2Cc3c(cc(N(C)C)nc3CNC)C2=O)n1 [Example 300] ?
Reply | 8.71

Ask | Next entry: CCn1cnnc1-c1cccc(N2Cc3c(cc(N4CCC[C@H]4C)nc3C(C)(C)N)C2=O)n1 [Example 100]
Reply | 7.29

Ask | Try this compound too: CC[C@@H](N)c1nc(N2CCC[C@H]2C)cc2c1CN(c1cccc(-c3nnc4n3[C@@H](C)CC4)n1)C2=O [Example 1]
Reply | 6.81

Ask | Moving on to CC[C@H]1CCc2nnc(-c3cccc(N4Cc5c(cc(N(C)C(C)C)nc5CNC)C4=O)n3)n21 [Example 201]
Reply | 8.27

Ask | Follow-up entry: CC[C@H]1CCc2nnc(-c3cccc(N4Cc5c(cc(N6CCC[C@H]6C)nc5CNC)C4=O)n3)n21 [Example 200]
Reply | 8.10

Ask | // repeat for CC[C@H]1CCc2nnc(-c3cccc(N4Cc5c(cc(N6CCC[C@H]6C)nc5[C@H](C)N)C4=O)n3)n21 [Example 3] and report
Reply | 8.18

Ask | Next compound: CC[C@H]1CCc2nnc(-c3cccc(N4Cc5c(cc(N(C)C(C)C)nc5[C@@H](C)N)C4=O)n3)n21 [Example 4]
Reply | 6.66

Ask | What do you get for CNCc1nc(N2CCC[C@H]2C)cc2c1CN(c1cccc(-c3nnc4n3[C@@H](CF)CC4)n1)C2=O [Example 202] ?
Reply | 8.18

Ask | What about this compound? CC[C@H]1CCc2nnc(-c3cccc(N4Cc5c(cc(N6CCC[C@H]6C)nc5[C@@H](C)N)C4=O)n3)n21 [Example 2]
Reply | 6.94

###

TARGET ENTITY: Human recombinant full-length GST-tagged RPS6KA2 (RSK3) (Homo sapiens (Human))
Sequence (Q15349 whole entry): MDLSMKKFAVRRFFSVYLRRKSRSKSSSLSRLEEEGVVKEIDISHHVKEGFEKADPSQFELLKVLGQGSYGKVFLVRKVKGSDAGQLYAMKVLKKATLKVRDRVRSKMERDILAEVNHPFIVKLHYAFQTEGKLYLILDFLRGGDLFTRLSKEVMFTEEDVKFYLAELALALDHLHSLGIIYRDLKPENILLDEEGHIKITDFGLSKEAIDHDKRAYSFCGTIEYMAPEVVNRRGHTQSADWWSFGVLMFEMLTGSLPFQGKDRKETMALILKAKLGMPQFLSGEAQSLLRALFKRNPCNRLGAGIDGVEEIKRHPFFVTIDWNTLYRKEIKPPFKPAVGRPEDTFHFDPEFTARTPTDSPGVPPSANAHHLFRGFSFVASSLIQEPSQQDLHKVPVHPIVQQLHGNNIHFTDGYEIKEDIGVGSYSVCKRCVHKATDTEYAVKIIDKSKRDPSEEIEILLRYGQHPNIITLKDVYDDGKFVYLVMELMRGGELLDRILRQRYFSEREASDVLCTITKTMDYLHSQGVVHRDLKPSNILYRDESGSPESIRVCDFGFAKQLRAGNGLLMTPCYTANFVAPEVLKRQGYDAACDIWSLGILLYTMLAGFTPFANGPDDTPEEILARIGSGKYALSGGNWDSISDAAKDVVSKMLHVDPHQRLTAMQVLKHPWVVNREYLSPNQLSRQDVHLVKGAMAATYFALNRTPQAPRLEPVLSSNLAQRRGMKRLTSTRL
EXPERIMENT SUMMARY: Biochemical selectivity kinase assay (Z'-LYTE FRET), RSK3
CONDITION INFO: ratio of the RSK3 IC50 to the HPK1 Ki
Text: Biochemical Selectivity Kinase Assay. The dose response curve was curve fit to model number 205 (sigmoidal dose-response model). A ratio of the PRKD2 IC50 to the HPK1 Ki and a ratio of the RSK3 IC50 to the HPK1 Ki, is provided in the respective columns adjacent to the columns for PRKD2 IC50 and RSK3 IC50.
RECORDED ENDPOINT: RSK3 IC50/HPK1 Ki

Ask | Please look up its RSK3 IC50/HPK1 Ki: CC[C@H]1CCc2nnc(-c3cccc(N4Cc5c(cc(N6CCC[C@H]6C)nc5[C@@H](C)N)C4=O)n3)n21
Reply | >420

Ask | Next: CNCc1nc(N2CCC[C@H]2C)cc2c1CN(c1cccc(-c3nnc4n3[C@@H](CF)CC4)n1)C2=O
Reply | 667

Ask | Also, CCn1cnnc1-c1cccc(N2Cc3c(cc(N4CCC[C@H]4C)nc3C(C)(C)N)C2=O)n1 please.
Reply | >320

Ask | What about CC[C@H]1CCc2nnc(-c3cccc(N4Cc5c(cc(N6CCC[C@H]6C)nc5CNC)C4=O)n3)n21 ?
Reply | >200

Ask | Field entry: CCCn1cnnc1-c1cccc(N2Cc3c(cc(N(C)C)nc3CNC)C2=O)n1
Reply | 23

Ask | Follow-up item: CC[C@H]1CCc2nnc(-c3cccc(N4Cc5c(cc(N(C)C(C)C)nc5CNC)C4=O)n3)n21
Reply | >134

Ask | Proceed to CC[C@H]1CCc2nnc(-c3cccc(N4Cc5c(cc(N6CCC[C@H]6C)nc5[C@H](C)N)C4=O)n3)n21
Reply | >66

Ask | Could you do the same for CC[C@H]1CCc2nnc(-c3cccc(N4Cc5c(cc(N(C)C(C)C)nc5[C@@H](C)N)C4=O)n3)n21 , please?
Reply | >520
